- Tested on: MS2 coat protein
- test: apparent KD of MS2 coat protein; designed switch direction (-1 OFF switch, 1 ON switch): -1; higher = weaker reporter binding
- assay-context: Eterna round: R95; input ligand: microRNA oligo, concentration not stated

[
  {
    "sequence-text": "AAAAUACAAGCAAGAUCCUACAUGAGGAUCACCCAUGUGCUCGUCUUAUAAAGUACUAUCACGAAAGUGAUAGUACA [Mat - Sensor v3 - turn-off var 1 - Eli Mod - D59] (puzzle: Sensor v3, turn-off variant 1)",
    "apparent KD of MS2 coat protein": "43.1 nM"
  },
  {
    "sequence-text": "CGUGCGUAUGUGAGGAUAUGCUGGUCCUUGGAUCGGCAGAAGGCACAUGAGGAUCACCCAUGUGGUGUCGUACU [salish99_Bmod_ex4_081] (puzzle: Brourd's mod of Exclusion 4)",
    "apparent KD of MS2 coat protein": "216 nM"
  },
  {
    "sequence-text": "AUAAGCUUUGAGAUCCUUAACAUGAGGAUCACCCAUGUUCGUCUUAUGAUGGUCUGAUCCCUGAGGAUCGGACCGUG [Mat - Sensor v3 - turn-off var 1 - JL Mod - D2] (puzzle: Sensor v3, turn-off variant 1)",
    "apparent KD of MS2 coat protein": "5.74 nM"
  },
  {
    "sequence-text": "UAAUGCAAGCAAAGAUCUUACAUGAGGAUCACCCAUGUGCUCGUCUUAUAAAGUACUAUCACGAAAGUGAUAGUACA [Mat - Sensor v3 - turn-off var 1 - Eli Mod - D91] (puzzle: Sensor v3, turn-off variant 1)",
    "apparent KD of MS2 coat protein": "109 nM"
  },
  {
    "sequence-text": "AGUGUGUUAGGAUAUCGGAUAUGCUGGAGGAGGUGGAGUUACGAGAAGGAACAUGAGGAUCACCCAUGUAGGAC [JR_Exclu4_Sub049] (puzzle: Exclusion 4)",
    "apparent KD of MS2 coat protein": "25.7 nM"
  }
]
